tested on: LNCaP; assay: Cytotoxicity against human LNCAP cells by sulforhodamine B assay; assay type: functional; details: read-out: ED50 (the source's name)
# maps each entry to its EC50
Provide the reading as a plain figure in nM.

Example cases with answers are listed next.
smi: COc1cc2c(c(OC)c1O)-c1ccc(OC)c(=O)cc1[C@@H](NC(C)=O)CC2
target.entity: LNCaP
measurement.units: nM
EC50: 325

smi: COc1cc([C@@H]2c3cc4c(cc3[C@@H](O[C@H]3O[C@H]5CO[C@H](C)O[C@@H]5[C@@H](O)[C@@H]3O)[C@H]3COC(=O)[C@H]23)OCO4)cc(OC)c1O
target.entity: LNCaP
measurement.units: nM
EC50: 530

smi: CC[C@@]1(O)C(=O)OCn2c1cc1c(c2=O)Cc2c-1nc1ccccc1c2/C=N/CCCC(=O)O[C@@H](C(=O)O[C@H]1C[C@@]2(O)[C@@H](OC(=O)c3ccccc3)[C@@H]3[C@]4(OC(C)=O)CO[C@@H]4C[C@H](O)[C@@]3(C)C(=O)[C@H](OC(C)=O)C(=C1C)C2(C)C)[C@@H](NC(=O)c1ccccc1)c1ccccc1
target.entity: LNCaP
measurement.units: nM
EC50: 0.34

query: Indicate its recorded EC50; the molecule in question is COc1cc([C@@H]2c3cc4c(cc3[C@@H](NCc3ccc(C(=O)O[C@H]5C[C@H]6OC[C@@]6(OC(C)=O)[C@H]6[C@H](OC(=O)c7ccccc7)[C@]7(O)C[C@H](OC(=O)[C@H](O)[C@@H](NC(=O)c8ccccc8)c8ccccc8)C(C)=C([C@@H](OC(C)=O)C(=O)[C@]56C)C7(C)C)cc3)[C@H]3COC(=O)[C@H]23)OCO4)cc(OC)c1O
result: 128

query: Indicate its recorded EC50; the molecule in question is COc1cc([C@@H]2c3cc4c(cc3[C@@H](/N=C/c3ccc(C(=O)O[C@H]5C[C@H]6OC[C@@]6(OC(C)=O)[C@H]6[C@H](OC(=O)c7ccccc7)[C@]7(O)C[C@H](OC(=O)[C@H](O)[C@@H](NC(=O)c8ccccc8)c8ccccc8)C(C)=C([C@@H](OC(C)=O)C(=O)[C@]56C)C7(C)C)cc3)[C@H]3COC(=O)[C@H]23)OCO4)cc(OC)c1O
result: 90.1

query: Indicate its recorded EC50; the molecule in question is CC[C@@]1(O)C(=O)OCn2c1cc1c(c2=O)Cc2c-1nc1ccccc1c2CNCCC(=O)O[C@@H](C(=O)O[C@H]1C[C@@]2(O)[C@@H](OC(=O)c3ccccc3)[C@@H]3[C@]4(OC(C)=O)CO[C@@H]4C[C@H](O)[C@@]3(C)C(=O)[C@H](OC(C)=O)C(=C1C)C2(C)C)[C@@H](NC(=O)c1ccccc1)c1ccccc1
result: 1.2

query: Indicate its recorded EC50; the molecule in question is COc1cc([C@@H]2c3cc4c(cc3[C@@H](Nc3ccc(C(=O)NCCC(=O)O[C@@H](C(=O)O[C@H]5C[C@@]6(O)[C@@H](OC(=O)c7ccccc7)[C@@H]7[C@]8(OC(C)=O)CO[C@@H]8C[C@H](O)[C@@]7(C)C(=O)[C@H](OC(C)=O)C(=C5C)C6(C)C)[C@@H](NC(=O)c5ccccc5)c5ccccc5)cc3)[C@H]3COC(=O)[C@H]23)OCO4)cc(OC)c1O
result: 4.2

query: Indicate its recorded EC50; the molecule in question is COc1cc([C@@H]2c3cc4c(cc3[C@@H](Nc3ccc(C(=O)NCCCC(=O)O[C@@H](C(=O)O[C@H]5C[C@@]6(O)[C@@H](OC(=O)c7ccccc7)[C@@H]7[C@]8(OC(C)=O)CO[C@@H]8C[C@H](O)[C@@]7(C)C(=O)[C@H](OC(C)=O)C(=C5C)C6(C)C)[C@@H](NC(=O)c5ccccc5)c5ccccc5)cc3)[C@H]3COC(=O)[C@H]23)OCO4)cc(OC)c1O
result: 10.2

query: Indicate its recorded EC50; the molecule in question is COc1ccc2c(c1)[C@@H](NC(=O)CCC(=O)O[C@@H](C(=O)O[C@H]1C[C@@]3(O)[C@@H](OC(=O)c4ccccc4)[C@@H]4[C@]5(OC(C)=O)CO[C@@H]5C[C@H](O)[C@@]4(C)C(=O)[C@H](OC(C)=O)C(=C1C)C3(C)C)[C@@H](NC(=O)c1ccccc1)c1ccccc1)CCc1cc(OC)c(OC)c(OC)c1-2
result: 23.7

query: Indicate its recorded EC50; the molecule in question is CC[C@@]1(O)C(=O)OCn2c1cc1c(c2=O)Cc2c-1nc1ccccc1c2C=O
result: 4.3

query: Indicate its recorded EC50; the molecule in question is COc1cc([C@@H]2c3cc4c(cc3[C@@H](N)[C@H]3COC(=O)[C@H]23)OCO4)cc(OC)c1O
result: 680

query: Indicate its recorded EC50; the molecule in question is COc1cc2c(c(OC)c1OC(=O)CCC(=O)O[C@@H](C(=O)O[C@H]1C[C@@]3(O)[C@@H](OC(=O)c4ccccc4)[C@@H]4[C@]5(OC(C)=O)CO[C@@H]5C[C@H](O)[C@@]4(C)C(=O)[C@H](OC(C)=O)C(=C1C)C3(C)C)[C@@H](NC(=O)c1ccccc1)c1ccccc1)-c1ccc(OC)c(=O)cc1[C@@H](NC(C)=O)CC2
result: 12.9

query: Indicate its recorded EC50; the molecule in question is CC[C@@]1(O)C(=O)OCc2c1cc1n(c2=O)Cc2cc3ccccc3nc2-1
result: 2

query: Indicate its recorded EC50; the molecule in question is CC(=O)O[C@H]1C(=O)[C@@]2(C)[C@H]([C@H](OC(=O)c3ccccc3)[C@]3(O)C[C@H](OC(=O)[C@H](O)[C@@H](NC(=O)c4ccccc4)c4ccccc4)C(C)=C1C3(C)C)[C@]1(OC(C)=O)CO[C@@H]1C[C@@H]2O
result: 2.6
